I'd be grateful if you could share measured pIC50 for these entries.
# test.target: LC3B (Homo sapiens)
# assay: Fluorescence Polarization (FP) Assay: displacement of FITC-labeled peptide from GST-LC3B
# Format: binding
# protocol.conditions: Fluorescence Polarization assay; GST-LC3B 180 nM, FITC-labeled peptide 18 nM, 25° C.; read-out: IC50
pIC50: −log10 of the molar value.

O=C1CC(c2cccc3[nH]ccc23)CC(=O)C1=CO (stereo not drawn) [Compound 429]: > 5.52

Hi, could you look up pIC50 for each item in my list?
1. CC(C)CC1CC(=O)C(=CN(C)C)C(=O)C1 (stereo not drawn)
2. Cc1ccc(C2CC(=O)C(=CNCCN3CCN(C(=S)Nc4ccccc4)CC3)C(=O)C2)cc1 (stereo not drawn)
3. O=C1Oc2ccccc2C(=O)C1=CNCCN1CCN(CCO)CC1

Reply text:
4.00 to 4.82
> 5.52
4.00 to 4.82

Hi, could you look up pIC50 for each item in my list?
1. CN(C)CCNC=C1C(=O)CC(C(=O)Nc2ccc(Br)cc2)CC1=O (stereo not drawn)
2. O=C1CC(c2ccc(C(F)(F)F)cc2)CC(=O)C1=CNCCN1CCN(CCO)CC1 (stereo not drawn)
3. CS(=O)(=O)c1ccc(C2CC(=O)C(=CNCCN3CCN(CCO)CC3)C(=O)C2)cc1 (stereo not drawn)
4. COCCOCCOc1ccccc1C1CC(=O)C(=CNCCN2CCN(CCO)CC2)C(=O)C1 (stereo not drawn)
5. COc1ccc(NC=C2C(=O)CC(c3ccccc3)CC2=O)cn1 (stereo not drawn)
6. COCCOCCOc1ccc(C2CC(=O)C(=CNCCN3CCN(CCO)CC3)C(=O)C2)cc1 (stereo not drawn)
7. O=C1CC(c2ccc(OC(F)(F)F)cc2)CC(=O)C1=CNCCN1CCN(CCO)CC1 (stereo not drawn)
8. O=C1CC(c2ccccc2-c2c(Cl)cccc2Cl)CC(=O)C1=CNCCN1CCN(CCO)CC1 (stereo not drawn)

Reply text:
1. 4.82 to 5.52
2. > 5.52
3. 3.00 to 4.00
4. 4.82 to 5.52
5. 4.00 to 4.82
6. 4.00 to 4.82
7. > 5.52
8. > 5.52

Hi, could you look up pIC50 for each item in my list?
1. CCOC(=O)C1C(=O)C(=CNCCN2CCN(CCO)CC2)C(=O)CC1c1ccccc1 (stereo not drawn)
2. O=C1CC(c2c[nH]c3cccc(Cl)c23)CC(=O)C1=CNCCN1CCN(CCO)CC1 (stereo not drawn)
3. CC(O)C(NC=C1C(=O)CC(c2ccccc2)CC1=O)C(=O)O (stereo not drawn)
4. O=C1CC(c2cccc3[nH]cc(-c4ccccc4)c23)CC(=O)C1=CNCCN1CCN(CCO)CC1 (stereo not drawn)
5. CN(C)C=C1C(=O)CC(c2ccc3[nH]ncc3c2)CC1=O (stereo not drawn)

Reply text:
4.82 to 5.52
> 5.52
3.00 to 4.00
> 5.52
> 5.52

Inquiry: Given Cn1nnc(-c2ccc(C3CC(=O)C(=CNCCN4CCN(CCO)CC4)C(=O)C3)cc2)n1 (stereo not drawn) , respond with its pIC50.
Reply text: 3.00 to 4.00

---

# test.target: LC3B (Homo sapiens)
# assay: Fluorescence Polarization (FP) Assay: displacement of FITC-labeled peptide from GST-LC3B
# Format: binding
# protocol.conditions: Fluorescence Polarization assay; GST-LC3B 180 nM, FITC-labeled peptide 18 nM, 25° C.; read-out: IC50
pIC50: −log10 of the molar value. Where a name gives a salt, the structure may show the parent alone.
I'd be grateful if you could share measured pIC50 for these entries.

Sample records with pIC50:
Cc1ccc(NC(=O)CN2CCN(CCNC=C3C(=O)CC(c4ccccc4Br)CC3=O)CC2)cc1 (stereo not drawn): > 5.52
O=C1CC(c2ccsc2)CC(=O)C1=CO (stereo not drawn) [Compound 457, sodium salt]: 4.82 to 5.52
Cc1ccc(C2CC(=O)C(=CNCCN3CCN(CCO)CC3)C(=O)C2)cc1 (stereo not drawn): > 5.52
CC1C(=O)/C(=C/NCCN2CCN(CCO)CC2)C(=O)CC1(O)c1ccccc1 (stereo not drawn): 4.00 to 4.82
O=C1CC(c2ccccc2)CC(=O)C1=CNC1CCCNC1 (stereo not drawn) [Compound 141, hydrochloride]: 4.82 to 5.52
O=C1CC(c2ccccc2)CC(=O)C1=CNCC1CCNCC1 (stereo not drawn) [Compound 161, hydrochloride]: 3.00 to 4.00
CN(C)CCNC=C1C(=O)CC(c2ccc(F)cc2Br)CC1=O (stereo not drawn): > 5.52
O=C1CC(c2ccccc2)CC(=O)C1=CNCCN1CCN(C(=O)c2ccccc2)CC1 (stereo not drawn): > 5.52

Hi, could you look up pIC50 for each item in my list?
1. O=C1CC(COc2cccc(F)c2)CC(=O)C1=CNCCN1CCN(CCO)CC1 (stereo not drawn)
2. O=C1CC(c2ccc(C(F)(F)F)cc2)CC(=O)C1=CO (stereo not drawn)
3. CC(=O)NCCNC=C1C(=O)CC(c2ccccc2)CC1=O (stereo not drawn)
4. CN(C)CCNC=C1C(=O)CC(C(=O)Nc2ccc(Cl)cc2)CC1=O (stereo not drawn)

Reply text:
["4.82 to 5.52", "4.82 to 5.52", "3.00 to 4.00", "4.82 to 5.52"]

Hi, could you look up pIC50 for each item in my list?
1. CN(C)CCNC=C1C(=O)CC(c2ccccc2O)CC1=O (stereo not drawn)
2. C=CCNC=C1C(=O)CC(c2ccccc2)CC1=O (stereo not drawn)

Reply text:
4.82 to 5.52
4.00 to 4.82

The measurements presented in this section are drawn from patent US11319303B2.
